target: ER beta (Homo sapiens); construct: Eurofine Cerep / Eurofine Panlabs Discovery Services; experiment: Selectivity, binding assay; settings: binding assay
Sequence (Q92731 whole entry): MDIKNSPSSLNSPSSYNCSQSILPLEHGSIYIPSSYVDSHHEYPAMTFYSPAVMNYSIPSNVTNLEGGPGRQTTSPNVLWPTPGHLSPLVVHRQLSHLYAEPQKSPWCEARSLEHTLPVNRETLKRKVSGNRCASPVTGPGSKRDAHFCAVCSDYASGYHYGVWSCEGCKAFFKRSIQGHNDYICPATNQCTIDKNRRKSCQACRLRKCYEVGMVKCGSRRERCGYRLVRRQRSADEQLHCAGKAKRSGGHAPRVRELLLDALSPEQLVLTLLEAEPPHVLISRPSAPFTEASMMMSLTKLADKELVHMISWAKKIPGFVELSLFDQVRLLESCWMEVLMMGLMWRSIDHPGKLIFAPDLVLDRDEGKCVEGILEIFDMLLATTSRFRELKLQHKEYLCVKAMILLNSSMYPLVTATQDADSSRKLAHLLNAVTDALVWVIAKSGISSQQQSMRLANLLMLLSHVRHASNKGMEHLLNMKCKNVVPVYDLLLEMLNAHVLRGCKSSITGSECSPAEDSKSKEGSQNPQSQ
metric: EC50

INSERT INTO results (compound, tested_on, readout_value) VALUES
  ('COc1cc(Cl)cc(N(CC23CCC(c4ccc(OC)c(C#N)c4)(CC2)CC3)C(=O)c2ccncc2C)c1 [Compound 20p]', 'ER beta (Homo sapiens)', '> 30 µM');

* * *

Each record here notes measured TGR5 Efficacy (%) (1 µM).
target: TGR5 (Homo sapiens, UniProt Q8TDU6); construct: host or cells: CHO cells; assay: TGR5 cAMP assay in CHO cells transfected with TGR5 (cAMP Hunter eXpress, Discover X); format: cell-based; settings: 1 µM; % vs INT-767 10 µM as 100%
Sequence (Q8TDU6 whole entry): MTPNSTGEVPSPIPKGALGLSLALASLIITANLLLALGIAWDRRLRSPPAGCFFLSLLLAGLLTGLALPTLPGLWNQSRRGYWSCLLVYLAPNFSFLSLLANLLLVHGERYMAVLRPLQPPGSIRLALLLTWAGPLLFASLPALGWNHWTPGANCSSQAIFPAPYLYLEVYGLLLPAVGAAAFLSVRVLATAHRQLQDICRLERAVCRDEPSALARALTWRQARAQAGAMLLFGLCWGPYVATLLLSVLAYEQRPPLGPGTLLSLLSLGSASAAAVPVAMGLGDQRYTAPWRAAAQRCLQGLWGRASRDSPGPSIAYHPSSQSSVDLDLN
metric: TGR5 Efficacy (%) (1 µM)

INSERT INTO measurements (molecule, tested_on, readout_value) VALUES
  ('COc1ncc(C23CCC(CN(C(=O)c4ccncc4C)c4cc(Cl)cc(Cl)c4)(CC2)CC3)cc1C [Compound 20u]', 'TGR5 (Homo sapiens, UniProt Q8TDU6)', '12.1%'),
  ('COc1cc(Cl)cc(N(CC23CCC(c4ccc5c(c4)OCO5)(CC2)CC3)C(=O)c2ccncc2C)c1 [Compound 20o]', 'TGR5 (Homo sapiens, UniProt Q8TDU6)', '36.0%'),
  ('CCc1cnccc1C(=O)N(CC12CCC(c3ccc(OC)c(C)c3)(CC1)CC2)c1cc(F)cc(Cl)c1 [Compound 20j]', 'TGR5 (Homo sapiens, UniProt Q8TDU6)', '21.5%'),
  ('CCC1C(O)C2C3CCC(C(C)CCOS(=O)(=O)O)C3(C)CCC2C2(C)CCC(O)CC12 (stereo not shown) [INT-767, reference compound]', 'TGR5 (Homo sapiens, UniProt Q8TDU6)', '25.5%');

* * *

Let's look at some compounds and their measured TGR5 Efficacy (%) (1 µM).
molecular target: TGR5 (Homo sapiens); construct: host or cells: CHO cells; experiment: TGR5 cAMP assay in CHO cells transfected with TGR5 (cAMP Hunter eXpress, Discover X); format: cell-based; details: 1 µM; % vs INT-767 10 µM as 100%
metric: TGR5 Efficacy (%) (1 µM)

INSERT INTO measurements (compound, readout_value) VALUES
  ('COc1ccc(C23CCC(CN(C(=O)c4ccncc4C)c4cc(Cl)cc(Cl)c4)(CC2)CC3)cc1C#N [Compound 20q]', '51.2%'),
  ('Cc1cnccc1C(=O)N(CC12CCC(c3ccc(N(C)C)cc3)(CC1)CC2)c1cc(Cl)cc(Cl)c1 [Compound 20s]', '18.9%'),
  ('COc1cc(Cl)cc(N(CC23CCC(c4ccc(OC)c(C#N)c4)(CC2)CC3)C(=O)c2ccncc2C)c1 [Compound 20p]', '51.1%'),
  ('COc1cc(Cl)cc(N(CC23CCC(c4ccc(N(C)C)cc4)(CC2)CC3)C(=O)c2ccncc2C)c1 [Compound 20t]', '25.0%'),
  ('Cc1cnccc1C(=O)N(CC12CCC(c3ccc4c(c3)OCCO4)(CC1)CC2)c1cc(Cl)cc(Cl)c1 [Compound 20r]', '57.1%'),
  ('COc1ccc(C23CCC(CN(C(=O)c4ccncc4C)c4cc(Cl)cc(Cl)c4)(CC2)CC3)cc1Cl [Compound 20v]', '33.5%');
